target: 4H_GCN4; experiment: two-hybrid library CCmax;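 also: natural log of median RNA to DNA barcode read ratio; higher means stronger binding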
Sequence (chain, as listed by the source): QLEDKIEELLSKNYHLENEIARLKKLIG

| binder | interaction score |
| --- | --- |
| DEIAALEAKNAALEAENAALEAKIAALKG [4H406-AA] | -1.67 |
| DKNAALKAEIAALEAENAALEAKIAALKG [4H3606-AA] | -0.288 |
| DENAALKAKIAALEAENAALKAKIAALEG [4H1821-AA] | -1.85 |
| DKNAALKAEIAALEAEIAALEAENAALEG [4H3587-AA] | -1.87 |
| DEIAALEAKNAALKAKIAALEAKIAALKG [4H486-AA] | -1.06 |
| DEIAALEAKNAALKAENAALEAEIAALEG [4H465-AA] | -2.34 |
| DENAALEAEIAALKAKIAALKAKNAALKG [4H1136-AA] | -1.83 |

Reference source for all entries: paper PMC10397247
